- Test system: MDA-MB231 (M231, human breast cancer cell line)
- protocolDescription: MTT assay IC50 (48 h), MDA-MB231
- Assay type: cell-based
- studyConditions: MDA-MB-231, M231, 48 hours
- Method: In another assay format, a test compound is assayed for its cytotoxicity and/or cytostatic effect on certain cancer cell types, using endpoint assay methods. Cells in the NCI cancer cell panel may be used. Cells after a pre-incubation for certain length of time (for example, 8 hrs or 24 hrs) are incubated with a test compound at serially-diluted concentrations (for example, five 10-fold dilutions) for 24 hrs and/or 48 hrs, and/or other specific length of time. […]
Decide using IC50 alone. Strictly below 3000 nM: t. Equal to or above 3000 nM: f.

Study these solved cases before continuing.
Fc1ccc(CSSSCc2ccc(F)cc2)cc1 [ACEA100108, Di(p-fluorobenzyl)trisulfide] : f
FC(F)(F)c1cccc(CSSSCc2cccc(C(F)(F)F)c2)c1 [ACEA100117, Di(m-trifluoromethylbenzyl)trisulfide] : f
Clc1ccccc1CSSSCc1ccccc1Cl [ACEA100115, Di(o-chlorobenzyl)trisulfide] : f
c1ccc(CSSSCc2ccccc2)cc1 [DBTS, Dibenzyl trisulfide] : t
Clc1ccc(CSSSCc2ccc(Cl)cc2)cc1 [ACEA100118, Di(p-chlorobenzyl)trisulfide] : t

Data request: Report whether reported IC50 is lower than 3000 nM (strictly) for Cc1cccc(CSSSCc2cccc(C)c2)c1 [ACEA100116, di(m-methylbenzyl)trisulfide]
Data returned: t

----------
- Tested on: HT1080 (human fibrosarcoma cell line)
- protocolDescription: RT-CES system cell proliferation/cytotoxicity IC50, HT1080
- Assay type: cell-based
- studyConditions: HT-1080, time point of maximum inhibition
I'd be grateful if you could share measured log10 IC50 for these entries.
Record value = log10 of IC50 given in µM.

c1ccc(CSSSCc2ccccc2)cc1 [DBTS, Dibenzyl trisulfide] : 0.34
FC(F)(F)c1cccc(CSSSCc2cccc(C(F)(F)F)c2)c1 [ACEA100117, Di(m-trifluoromethylbenzyl)trisulfide] : 1.44
Clc1ccccc1CSSSCc1ccccc1Cl [ACEA100115, Di(o-chlorobenzyl)trisulfide] : 0.34
Clc1ccc(CSSSCc2ccc(Cl)cc2)cc1 [ACEA100118, Di(p-chlorobenzyl)trisulfide] : 0.08

Provide each entry's log10 IC50 from the list below.
1. Cc1cccc(CSSSCc2cccc(C)c2)c1 [ACEA100116, di(m-methylbenzyl)trisulfide]
2. Fc1ccc(CSSSCc2ccc(F)cc2)cc1 [ACEA100108, Di(p-fluorobenzyl)trisulfide]

Data returned:
[0.28, 0.11]

----------
- protocolDescription: Acute toxicity, single intravenous injection, LD50 (Bliss method) in Kunming mice
- Type: in vivo
- studyConditions: both sexes, Kunming, mouse, in vivo, iv, 50% male, 50% female Kunming mice, single i.v.; read-out: LD50
reportedEndpoint: LD50 at 2 weeks (mg/kg)
Numbers only, in mg/kg.

Data request: Given the compound c1ccc(CSSSCc2ccccc2)cc1 [DBTS, Dibenzyl trisulfide] , write its reported LD50 at 2 weeks.
Data returned: 259

----------
I'd be grateful if you could share measured IC50 for these entries.
- Tested on: OVCAR4 (human ovarian cancer cell line)
- protocolDescription: RT-CES system cell proliferation/cytotoxicity IC50, OVCAR4
- Assay type: cell-based
- studyConditions: OVCAR-4, time point of maximum inhibition
Answers are plain numbers, in µM.

Some compounds with known IC50 results, for comparison:
Clc1ccc(CSSSCc2ccc(Cl)cc2)cc1 [ACEA100118, Di(p-chlorobenzyl)trisulfide] : 2.25
Clc1ccccc1CSSSCc1ccccc1Cl [ACEA100115, Di(o-chlorobenzyl)trisulfide] : 0.5
FC(F)(F)c1cccc(CSSSCc2cccc(C(F)(F)F)c2)c1 [ACEA100117, Di(m-trifluoromethylbenzyl)trisulfide] : 33.5
Cc1cccc(CSSSCc2cccc(C)c2)c1 [ACEA100116, di(m-methylbenzyl)trisulfide] : 0.6
c1ccc(CSSSCc2ccccc2)cc1 [DBTS, Dibenzyl trisulfide] : 1.75

Moving on to the next compound.
Data request: Given the compound Fc1ccc(CSSSCc2ccc(F)cc2)cc1 [ACEA100108, Di(p-fluorobenzyl)trisulfide] , write its reported IC50.
Data returned: 2
